# Test system: 958667-338-R-J2-PDC tumor spheroids viability;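 note: spheroids exposed to compounds for seven days before readout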
# EXPERIMENT NOTES: Anticancer human tumor 958667-338-R-J2-PDC patient-derived colon adenocarcinoma cell line growth inhibition [PI3K]
# EXPERIMENTAL PARAMETERS: second compound 0.316 µM; first compound 10 µM; stronger effect = lower value; spheroids with HUVEC and MSC
Assign classes using reported viability, T/C values and the ranges lower segment (below 20%), middle segment (20% to below 60%), upper segment (60% or more), please.

COMPOUND: Cn1nccc1Nc1nccc(-c2ccn(C(CO)c3ccc(Cl)c(F)c3)c(=O)c2)n1 (stereo unspecified) + COc1c(OCCCN2CCOCC2)ccc2c3n(c(=NC(=O)c4cnc(N)nc4)nc12)CCN3
DISCRETE LABEL: lower segment
//
COMPOUND: Cn1ncc(Cl)c1-c1cc(C(=O)NC(CN)Cc2cccc(F)c2)sc1Cl (stereo unspecified) + CC(Nc1ncnc2nc[nH]c12)c1cc2cccc(Cl)c2c(=O)n1-c1ccccc1
DISCRETE LABEL: middle segment
//
COMPOUND: CC1(C)CCC(Nc2ncc(C(F)(F)F)c(-c3c[nH]c4c(P(C)(C)=O)c(C#N)ccc34)n2)CN1 (stereo unspecified) + Cc1nc(NC(=O)N2CCCC2C(N)=O)sc1-c1ccnc(C(C)(C)C(F)(F)F)c1
DISCRETE LABEL: middle segment
//
COMPOUND: CC(C)NCC(C(=O)N1CCN(c2ncnc3c2C(C)CC3O)CC1)c1ccc(Cl)cc1 (stereo unspecified) + COc1c(OCCCN2CCOCC2)ccc2c3n(c(=NC(=O)c4cnc(N)nc4)nc12)CCN3
DISCRETE LABEL: middle segment
//
COMPOUND: CC1(C)CCC(CN2CCN(c3ccc(C(=O)NS(=O)(=O)c4ccc(NCC5CCOCC5)c([N+](=O)[O-])c4)c(Oc4cnc5[nH]ccc5c4)c3)CC2)=C(c2ccc(Cl)cc2)C1 + CC(Nc1ncnc2nc[nH]c12)c1cc2cccc(Cl)c2c(=O)n1-c1ccccc1
DISCRETE LABEL: upper segment
//
COMPOUND: C#Cc1c(F)ccc2cc(O)cc(-c3ncc4c(N5CC6CCC(C5)N6)nc(OCC56CCCN5CC(F)C6)nc4c3F)c12 (stereo unspecified) + COc1c(OCCCN2CCOCC2)ccc2c3n(c(=NC(=O)c4cnc(N)nc4)nc12)CCN3
DISCRETE LABEL: lower segment
//
COMPOUND: Cn1ncc(Cl)c1-c1cc(C(=O)NC(CN)Cc2cccc(F)c2)sc1Cl (stereo unspecified) + CC(Nc1ccc2c(c1)OCCn1cc(N3C(=O)OCC3C(F)F)nc1-2)C(N)=O
DISCRETE LABEL: middle segment
//
COMPOUND: C=CC(=O)N1CCN(c2nc(=O)n(-c3c(C)ccnc3C(C)C)c3nc(-c4c(O)cccc4F)c(F)cc23)C(C)C1 (stereo unspecified) + CC(Nc1ccc2c(c1)OCCn1cc(N3C(=O)OCC3C(F)F)nc1-2)C(N)=O
DISCRETE LABEL: upper segment
//
COMPOUND: C[C@@H](NC(=O)c1ncnc(N)c1Cl)c1ncc(C(=O)Nc2cc(C(F)(F)F)c(Cl)cn2)s1 + COc1c(OCCCN2CCOCC2)ccc2c3n(c(=NC(=O)c4cnc(N)nc4)nc12)CCN3
DISCRETE LABEL: middle segment
//
COMPOUND: CC1(C)CCC(Nc2ncc(C(F)(F)F)c(-c3c[nH]c4c(P(C)(C)=O)c(C#N)ccc34)n2)CN1 (stereo unspecified) + CC(Nc1ncnc2nc[nH]c12)c1cc2cccc(Cl)c2c(=O)n1-c1ccccc1
DISCRETE LABEL: middle segment
//
COMPOUND: Cn1nccc1Nc1nccc(-c2ccn(C(CO)c3ccc(Cl)c(F)c3)c(=O)c2)n1 (stereo unspecified) + CC(Nc1ccc2c(c1)OCCn1cc(N3C(=O)OCC3C(F)F)nc1-2)C(N)=O
DISCRETE LABEL: lower segment
//
COMPOUND: CC1(C)CCC(CN2CCN(c3ccc(C(=O)NS(=O)(=O)c4ccc(NCC5CCOCC5)c([N+](=O)[O-])c4)c(Oc4cnc5[nH]ccc5c4)c3)CC2)=C(c2ccc(Cl)cc2)C1 + COc1c(OCCCN2CCOCC2)ccc2c3n(c(=NC(=O)c4cnc(N)nc4)nc12)CCN3
DISCRETE LABEL: lower segment
//
COMPOUND: CC(Cn1ccc(-c2ccc(C#N)c(Cl)c2)n1)NC(=O)c1cc(C(C)O)[nH]n1 (stereo unspecified) + CC(Nc1ccc2c(c1)OCCn1cc(N3C(=O)OCC3C(F)F)nc1-2)C(N)=O
DISCRETE LABEL: upper segment
//
COMPOUND: CC(C)NCC(C(=O)N1CCN(c2ncnc3c2C(C)CC3O)CC1)c1ccc(Cl)cc1 (stereo unspecified) + CC(Nc1ncnc2nc[nH]c12)c1cc2cccc(Cl)c2c(=O)n1-c1ccccc1
DISCRETE LABEL: upper segment
//
COMPOUND: C[C@@H](NC(=O)c1ncnc(N)c1Cl)c1ncc(C(=O)Nc2cc(C(F)(F)F)c(Cl)cn2)s1 + Cc1nc(NC(=O)N2CCCC2C(N)=O)sc1-c1ccnc(C(C)(C)C(F)(F)F)c1
DISCRETE LABEL: upper segment
//
COMPOUND: CC1(C)CCC(Nc2ncc(C(F)(F)F)c(-c3c[nH]c4c(P(C)(C)=O)c(C#N)ccc34)n2)CN1 (stereo unspecified) + CC(Nc1ccc2c(c1)OCCn1cc(N3C(=O)OCC3C(F)F)nc1-2)C(N)=O
DISCRETE LABEL: middle segment
//
COMPOUND: CCCS(=O)(=O)Nc1ccc(F)c(C(=O)c2c[nH]c3ncc(-c4ccc(Cl)cc4)cc23)c1F + CC(Nc1ncnc2nc[nH]c12)c1cc2cccc(Cl)c2c(=O)n1-c1ccccc1
DISCRETE LABEL: lower segment
//
COMPOUND: CCCS(=O)(=O)Nc1ccc(F)c(C(=O)c2c[nH]c3ncc(-c4ccc(Cl)cc4)cc23)c1F + Cc1nc(NC(=O)N2CCCC2C(N)=O)sc1-c1ccnc(C(C)(C)C(F)(F)F)c1
DISCRETE LABEL: lower segment
//
COMPOUND: CNC(=O)c1ccc(N2C(=S)N(c3ccc(C#N)c(C(F)(F)F)c3)C(=O)C2(C)C)cc1F + Cc1nc(NC(=O)N2CCCC2C(N)=O)sc1-c1ccnc(C(C)(C)C(F)(F)F)c1
DISCRETE LABEL: upper segment
//
COMPOUND: CCCS(=O)(=O)Nc1ccc(F)c(C(=O)c2c[nH]c3ncc(-c4ccc(Cl)cc4)cc23)c1F + CC(Nc1ccc2c(c1)OCCn1cc(N3C(=O)OCC3C(F)F)nc1-2)C(N)=O
DISCRETE LABEL: lower segment
